Some molecules, each annotated with its measured MIC.
System: Mycobacterium tuberculosis
Assay: Lowest concentration of compound against Mtb H37Ra strain required to inhibit the growth completely
Type: functional
All answers are understood in µg/mL, so give the number only.

Smiles entry	MIC (µg/mL)
CCOC(=O)Cn1cnc2c(SCc3ccccc3F)nc(O)nc21	4

Please give the measured MIC for this molecule: `CCOC(=O)Cn1cnc2c(SCc3cc(Cl)ccc3F)nc(O)nc21`
4

What do you have for `CCOC(=O)Cn1cnc2c(SCc3ccccc3)nc(O)nc21` ?
4

What do you have for `CCCCCCCCCCCCSc1ncnc2c1ncn2CC(=O)OCC` ?
8

* * *

System: Mycobacterium tuberculosis
Experiment: Percent inhibitory activity against Mycobacterium tuberculosis H37Rv Strain at 6.25 ug/mL
Format: functional
Assay readout: inhibition at 6.25 µg/mL
Provide the measurement as a number trailed by its unit.

Examples from the recorded data:
Smiles entry	Tested system	inhibition at 6.25 µg/mL
CCOC(=O)Cn1cnc2c(Sc3cccc(C)c3)ncnc21	Mycobacterium tuberculosis	0%
Oc1nc(SCc2ccc(F)cc2)c2[nH]cnc2n1	Mycobacterium tuberculosis	52%
Clc1nc(Sc2ncccn2)c2[nH]cnc2n1	Mycobacterium tuberculosis	53%
Clc1nc(Sc2cccc3ccccc23)c2[nH]cnc2n1	Mycobacterium tuberculosis	56%
CCOC(=O)Cn1cnc2c(Sc3ccc(Cl)cc3)ncnc21	Mycobacterium tuberculosis	99%

Please give the measured inhibition at 6.25 µg/mL for this molecule: `Oc1nc(SCc2ccc(Cl)cc2)c2[nH]cnc2n1`
55%

What do you have for `CCOC(=O)Cn1cnc2c(SCc3cccc([N+](=O)[O-])c3C)nc(O)nc21` ?
0%
